Values from patent EP4588489A1

Listed here: items and their measured EC50(nM), inhibition of BxPC-3 cell proliferation.
- assayed.system: T1, TROP2 (UniProt P09758 27-323, limits assumed)
- T1 sequence (looked up): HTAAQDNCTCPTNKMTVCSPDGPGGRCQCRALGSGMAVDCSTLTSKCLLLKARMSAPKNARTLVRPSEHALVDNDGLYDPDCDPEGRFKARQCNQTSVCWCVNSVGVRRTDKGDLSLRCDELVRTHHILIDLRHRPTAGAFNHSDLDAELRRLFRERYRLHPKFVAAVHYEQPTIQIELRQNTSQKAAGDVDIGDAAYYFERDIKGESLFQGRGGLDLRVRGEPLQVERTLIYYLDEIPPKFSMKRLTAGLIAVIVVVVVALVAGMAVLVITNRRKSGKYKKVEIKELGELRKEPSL
- assay.summary: cell-based or functional assay

QUERY: For the binder shown here, hRS7-CPT006-D4 (antibody, human IgG1, kappa, V domains shown, linker-drug CPT006 on cysteines of reduced interchain disulfides; label D4) VH: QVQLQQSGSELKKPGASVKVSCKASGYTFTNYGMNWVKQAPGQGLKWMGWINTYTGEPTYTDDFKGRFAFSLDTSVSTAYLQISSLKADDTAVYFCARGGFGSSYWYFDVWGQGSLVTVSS VL: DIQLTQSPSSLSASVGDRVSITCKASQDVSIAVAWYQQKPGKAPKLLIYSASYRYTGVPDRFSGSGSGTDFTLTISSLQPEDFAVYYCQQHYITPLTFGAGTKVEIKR , give the reported EC50(nM), inhibition of BxPC-3 cell proliferation.
RESULT: 0.259 nM

QUERY: Try this binder too: DXD (deruxtecan)-conjugated sacituzumab (hRS7-DXD) (antibody, human IgG1, kappa, V domains shown, deruxtecan (DXD) on cysteines of reduced interchain disulfides; label D4) VH: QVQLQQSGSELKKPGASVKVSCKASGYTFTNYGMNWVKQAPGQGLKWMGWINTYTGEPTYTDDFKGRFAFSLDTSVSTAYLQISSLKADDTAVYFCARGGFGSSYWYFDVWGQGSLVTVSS VL: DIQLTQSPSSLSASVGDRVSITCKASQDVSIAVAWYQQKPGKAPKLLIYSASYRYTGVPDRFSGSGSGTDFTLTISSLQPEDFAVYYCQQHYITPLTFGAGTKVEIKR
RESULT: 0.156 nM

QUERY: Try this binder too: hRS7-CPT005-D4 (antibody, human IgG1, kappa, V domains shown, linker-drug CPT005 on cysteines of reduced interchain disulfides; label D4) VH: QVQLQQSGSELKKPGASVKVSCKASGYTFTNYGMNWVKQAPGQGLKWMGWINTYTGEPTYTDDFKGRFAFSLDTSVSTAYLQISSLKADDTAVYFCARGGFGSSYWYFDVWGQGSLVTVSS VL: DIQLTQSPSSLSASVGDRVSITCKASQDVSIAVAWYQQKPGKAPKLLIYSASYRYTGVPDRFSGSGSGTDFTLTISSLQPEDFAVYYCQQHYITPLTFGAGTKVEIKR
RESULT: 0.101 nM

QUERY: Try this binder too: hRS7-CPT004-D4 (antibody, human IgG1, kappa, V domains shown, linker-drug CPT004 on cysteines of reduced interchain disulfides; label D4) VH: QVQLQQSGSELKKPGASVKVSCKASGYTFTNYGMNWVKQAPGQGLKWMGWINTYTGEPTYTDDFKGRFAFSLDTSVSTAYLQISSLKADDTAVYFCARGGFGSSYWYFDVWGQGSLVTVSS VL: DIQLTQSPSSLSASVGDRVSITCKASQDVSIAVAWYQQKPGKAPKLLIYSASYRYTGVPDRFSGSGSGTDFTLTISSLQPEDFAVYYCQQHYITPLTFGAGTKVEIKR
RESULT: 0.144 nM
